Molecular target: P-glycoprotein (P-gp) (Homo sapiens (Human))
Sequence (P08183 whole entry): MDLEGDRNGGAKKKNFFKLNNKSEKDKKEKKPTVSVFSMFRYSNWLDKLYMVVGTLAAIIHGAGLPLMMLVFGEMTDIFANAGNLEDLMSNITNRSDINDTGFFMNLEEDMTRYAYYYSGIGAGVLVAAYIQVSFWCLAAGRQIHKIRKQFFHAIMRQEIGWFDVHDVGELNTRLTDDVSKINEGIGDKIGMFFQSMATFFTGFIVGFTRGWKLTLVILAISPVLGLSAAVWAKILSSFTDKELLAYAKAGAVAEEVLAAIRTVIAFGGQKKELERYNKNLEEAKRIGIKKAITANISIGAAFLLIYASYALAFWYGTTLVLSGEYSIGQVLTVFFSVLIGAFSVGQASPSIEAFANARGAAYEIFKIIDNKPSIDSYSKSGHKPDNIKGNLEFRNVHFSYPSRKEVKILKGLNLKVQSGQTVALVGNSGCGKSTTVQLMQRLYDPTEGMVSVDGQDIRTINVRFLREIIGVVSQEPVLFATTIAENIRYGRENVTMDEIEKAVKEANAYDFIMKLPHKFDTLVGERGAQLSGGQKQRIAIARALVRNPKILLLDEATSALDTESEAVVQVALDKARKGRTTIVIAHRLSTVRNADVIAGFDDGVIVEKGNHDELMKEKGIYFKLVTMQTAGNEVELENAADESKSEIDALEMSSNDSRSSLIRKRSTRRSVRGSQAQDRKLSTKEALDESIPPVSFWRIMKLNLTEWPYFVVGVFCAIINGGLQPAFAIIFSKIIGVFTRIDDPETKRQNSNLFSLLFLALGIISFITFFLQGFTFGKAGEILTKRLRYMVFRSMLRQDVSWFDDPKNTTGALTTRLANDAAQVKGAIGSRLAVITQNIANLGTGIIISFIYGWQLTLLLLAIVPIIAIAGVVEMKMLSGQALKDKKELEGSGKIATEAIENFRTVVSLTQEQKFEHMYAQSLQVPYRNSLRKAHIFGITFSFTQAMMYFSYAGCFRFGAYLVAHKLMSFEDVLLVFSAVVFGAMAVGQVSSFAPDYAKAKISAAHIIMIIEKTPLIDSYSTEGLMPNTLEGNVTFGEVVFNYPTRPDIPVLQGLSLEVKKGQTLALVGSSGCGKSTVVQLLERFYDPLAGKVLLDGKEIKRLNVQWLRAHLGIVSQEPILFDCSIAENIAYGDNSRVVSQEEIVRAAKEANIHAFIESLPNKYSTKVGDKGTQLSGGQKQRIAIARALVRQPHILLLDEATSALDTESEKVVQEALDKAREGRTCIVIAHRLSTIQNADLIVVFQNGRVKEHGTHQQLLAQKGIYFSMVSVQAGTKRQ
Assay: MDCK-MDR1 permeability / efflux assay
Type: in vitro ADME
Conditions: dog, MDCK-MDR1, pH 7.4, efflux ratio, read-out: MDCK-MDR1 ER
METRIC_NAME: efflux ratio at 120 min, 10 μM

Here's what some known entries look like.
> print(dat)
                                   compound                     metric.name  result
1  O=C1CCc2cc([C@@H](O)CN3C[C@H]4C[C@H](Oc5ccccc5)C[C@@]4(O)C3)ccc2N1  efflux ratio at 120 min, 10 μM    3.02
2  O=C1CCc2cc([C@H](O)CN3C[C@H]4C[C@H](Oc5ccccc5)C[C@@]4(O)C3)ccc2N1  efflux ratio at 120 min, 10 μM     2.3
3  O[C@H](CN1C[C@H]2C[C@H](Oc3ccccc3F)[C@H](O)[C@@]2(O)C1)c1cnc2[nH]ccc2c1 (single isomer, unassigned) [Example 44B]  efflux ratio at 120 min, 10 μM    7.34

A: O=C1Nc2c(F)cc([C@@H](O)CN3C[C@H]4C[C@H](Oc5ccccc5)C[C@@]4(O)C3)cc2CS1 (single isomer, unassigned) [Example 16A]
B: O=c1ccc2cc([C@@H](O)CN3C[C@H]4C[C@H](Oc5ccccc5)C[C@@]4(O)C3)ccc2[nH]1 (single isomer, unassigned)
Incoming: // compare: A vs B , metric efflux ratio at 120 min, 10 μM, want the smaller Return value: the label identifying the chosen record.
Outgoing: A

###

# Lookup of reported IC50 keyed by entry
Molecular target: UniProtKB Q12809
Sequence (Q12809 whole entry): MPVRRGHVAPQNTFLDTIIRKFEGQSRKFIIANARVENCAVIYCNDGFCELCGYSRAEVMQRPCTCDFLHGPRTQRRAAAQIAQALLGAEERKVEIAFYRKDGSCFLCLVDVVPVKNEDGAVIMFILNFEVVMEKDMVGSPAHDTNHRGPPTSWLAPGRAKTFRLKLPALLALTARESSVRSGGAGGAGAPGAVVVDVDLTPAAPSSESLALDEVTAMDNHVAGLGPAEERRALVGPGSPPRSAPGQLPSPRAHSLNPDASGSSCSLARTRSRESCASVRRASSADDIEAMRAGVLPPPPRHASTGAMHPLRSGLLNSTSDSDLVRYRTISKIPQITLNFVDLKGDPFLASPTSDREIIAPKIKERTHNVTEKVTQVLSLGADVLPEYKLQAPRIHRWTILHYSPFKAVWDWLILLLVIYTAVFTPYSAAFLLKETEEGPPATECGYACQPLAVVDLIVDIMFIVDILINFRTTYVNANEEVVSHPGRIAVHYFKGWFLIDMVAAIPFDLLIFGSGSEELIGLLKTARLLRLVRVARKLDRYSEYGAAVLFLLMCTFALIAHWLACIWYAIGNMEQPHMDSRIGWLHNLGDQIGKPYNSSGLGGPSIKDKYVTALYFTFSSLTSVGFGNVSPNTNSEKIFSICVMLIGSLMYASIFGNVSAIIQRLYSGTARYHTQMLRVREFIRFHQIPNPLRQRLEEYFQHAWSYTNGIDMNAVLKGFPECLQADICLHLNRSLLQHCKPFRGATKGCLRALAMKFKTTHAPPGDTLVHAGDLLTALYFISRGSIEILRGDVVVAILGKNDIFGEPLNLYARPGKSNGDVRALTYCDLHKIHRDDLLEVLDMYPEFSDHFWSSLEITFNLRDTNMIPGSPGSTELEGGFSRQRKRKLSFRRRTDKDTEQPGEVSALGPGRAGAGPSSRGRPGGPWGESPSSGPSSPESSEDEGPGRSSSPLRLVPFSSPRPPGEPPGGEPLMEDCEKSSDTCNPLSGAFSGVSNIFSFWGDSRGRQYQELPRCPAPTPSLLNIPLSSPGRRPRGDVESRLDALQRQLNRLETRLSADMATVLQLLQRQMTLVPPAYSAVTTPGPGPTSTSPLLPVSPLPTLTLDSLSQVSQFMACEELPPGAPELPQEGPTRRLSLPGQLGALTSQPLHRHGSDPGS
Experiment: hERG Qpatch assay
Assay type: cell-based
Details: Table 2, hERG expressing CHO-K1 cells
Respond with the bare value in µM.

> print(dat)
                                   compound  uom  result
1  O=C1CCc2cc([C@H](O)CN3C[C@H]4C[C@H](Oc5ccccc5)C[C@@]4(O)C3)ccc2N1   µM     7.6
2  O=c1[nH]c2c(F)cc([C@@H](O)CN3C[C@H]4C[C@H](Oc5ccccc5)C[C@@]4(O)C3)cc2s1 (single isomer, unassigned) [Example 42A]   µM     2.2
3  O=C1Nc2cc(F)c([C@@H](O)CN3C[C@H]4C[C@H](Oc5ccccc5)C[C@@]4(O)C3)cc2CO1 (single isomer, unassigned) [Example 36A]   µM     5.5

// O=C1Nc2c(F)cc([C@@H](O)CN3C[C@H]4C[C@H](Oc5ccccc5)C[C@@]4(O)C3)cc2CO1 (single isomer, unassigned) [Example 33A] : IC50 value = 8.2

// O=C1Nc2ccc([C@H](O)CN3C[C@H]4C[C@H](Oc5ccccc5)C[C@@]4(O)C3)cc2CS1 (single isomer, unassigned) [Example 14B] : IC50 value = 1.3

###

Molecular target: NR2B (Rattus norvegicus (Rat), UniProt Q00960)
Sequence (Q00960 27-1482, other chains not shown): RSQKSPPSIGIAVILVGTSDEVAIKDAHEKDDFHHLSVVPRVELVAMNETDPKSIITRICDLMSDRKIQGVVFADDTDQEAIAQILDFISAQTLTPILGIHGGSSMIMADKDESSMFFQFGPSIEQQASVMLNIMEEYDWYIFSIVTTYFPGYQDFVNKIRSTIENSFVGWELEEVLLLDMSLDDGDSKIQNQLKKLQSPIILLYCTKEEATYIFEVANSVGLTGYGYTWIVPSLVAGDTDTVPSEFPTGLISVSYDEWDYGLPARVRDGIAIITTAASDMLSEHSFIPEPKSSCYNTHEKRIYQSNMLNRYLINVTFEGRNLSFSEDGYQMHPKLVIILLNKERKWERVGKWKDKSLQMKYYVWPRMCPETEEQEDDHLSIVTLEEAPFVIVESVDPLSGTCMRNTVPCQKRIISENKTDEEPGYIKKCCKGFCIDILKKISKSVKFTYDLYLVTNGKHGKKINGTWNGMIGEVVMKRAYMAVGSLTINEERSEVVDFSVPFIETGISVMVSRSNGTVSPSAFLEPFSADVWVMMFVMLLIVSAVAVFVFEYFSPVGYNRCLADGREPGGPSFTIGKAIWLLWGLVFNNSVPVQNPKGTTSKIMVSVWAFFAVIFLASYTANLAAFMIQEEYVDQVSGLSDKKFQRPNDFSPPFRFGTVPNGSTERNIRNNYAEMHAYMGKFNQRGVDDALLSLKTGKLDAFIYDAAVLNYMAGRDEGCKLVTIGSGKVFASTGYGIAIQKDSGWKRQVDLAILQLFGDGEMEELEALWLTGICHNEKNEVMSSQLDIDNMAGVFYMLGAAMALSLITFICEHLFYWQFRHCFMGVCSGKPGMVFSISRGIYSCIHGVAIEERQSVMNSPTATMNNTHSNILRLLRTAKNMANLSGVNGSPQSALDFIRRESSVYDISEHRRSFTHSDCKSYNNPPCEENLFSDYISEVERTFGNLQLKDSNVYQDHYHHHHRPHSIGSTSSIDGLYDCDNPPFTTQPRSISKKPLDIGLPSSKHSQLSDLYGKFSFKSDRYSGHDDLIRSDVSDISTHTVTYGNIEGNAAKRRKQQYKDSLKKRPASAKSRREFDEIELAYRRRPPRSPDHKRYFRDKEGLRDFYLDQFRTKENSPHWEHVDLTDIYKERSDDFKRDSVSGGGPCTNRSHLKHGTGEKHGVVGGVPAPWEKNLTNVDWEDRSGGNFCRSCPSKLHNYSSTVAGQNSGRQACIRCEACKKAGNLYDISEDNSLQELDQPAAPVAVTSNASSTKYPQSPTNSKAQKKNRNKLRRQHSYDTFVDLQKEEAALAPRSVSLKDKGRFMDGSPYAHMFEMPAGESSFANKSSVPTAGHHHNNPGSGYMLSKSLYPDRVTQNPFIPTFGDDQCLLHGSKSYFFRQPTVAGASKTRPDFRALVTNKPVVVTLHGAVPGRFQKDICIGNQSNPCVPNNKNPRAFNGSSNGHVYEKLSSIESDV
Assay: NR2B rat cortical neuron calcium influx assay
Conditions: rat cortical neurons, glutamate and glycine stimulated calcium influx
METRIC_NAME: IC50 (nM)

a: O=c1[nH]c2c(F)cc([C@@H](O)CN3C[C@H]4C[C@H](Oc5ccccc5)C[C@@]4(O)C3)cc2s1 (single isomer, unassigned) [Example 42A]
b: O=C1COc2cc([C@@H](O)CN3C[C@H]4C[C@H](Oc5ccccc5)C[C@@]4(O)C3)cc(F)c2N1 (single isomer, unassigned) [Example 13A]
c: O=C1CCc2cc([C@H](O)CN3C[C@H]4C[C@H](Oc5ccccc5)C[C@@]4(O)C3)cc(F)c2N1 (single isomer, unassigned) [Example 31B]
Incoming: Put the items in order so that reported IC50 rises from first to last. # the answer lists labels in the order requested
Outgoing: a, c, b
(a: 0.19 nM, c: 4.8 nM, b: 86 nM)
